Here's a batch of compounds along with measured ΔTm for Mitogen-activated protein kinase 14 (Homo sapiens, UniProt Q16539).
observable: ΔTm (°C)

Prompt line: Would you kindly share the measured ΔTm for NC(=O)[C@H](CC1CCCCC1)NC(=O)c1ccc(CNC(=O)c2cc(-c3ccccc3)n[nH]2)cc1 ?
Response line: 1.4

Prompt line: Cool, now Cc1ccc(C(=O)NCC(N)=O)cc1NC(=O)c1ccc(-c2ccccc2Cl)s1
Response line: 1.4

a. Cc1ccc(C(=O)NCCCC(C)C)cc1NC(=O)c1ccc(-c2ccccc2Cl)s1
b. Nc1c(C(=O)Nc2ccc(C(=O)NC3CC3)s2)cnn1-c1ccccc1
c. Cc1ccc(C(N)=O)cc1NC(=O)c1ccc(-c2ccccc2Cl)s1
Prompt line: Put the compounds in ascending order of ΔTm. Your reply should list the labels following the order given in the request.
Response line: a, b, c
